From: patent US6057450A

# System: human lymphocytes
# assay.info: in vitro non-specific lymphoproliferative response (RLP-I) to PHA, human lymphocyte cultures
# Assay type: cell-based
# condition.parameters: Table V; PHA + BRM-BLAS (B) versus PHA (A)
Threshold rule: RLP-I B < A, number of witness models greater than or equal to 20 Num. is 1; below that, -1.

> print(dat)
                                   compound  group.label
1  CC(=O)NC1(C[n+]2ccccc2)CC(C(=O)O)N(C(C)=O)C1=O (centres unmarked) [BRM-BLAS 320 (Cl)]            1
2  CC(=O)NC1(C[n+]2ccccc2)CC(C(=O)O)N(C(C)=O)C1=O (centres unmarked) [BRM-BLAS 320 (Ac)]           -1
3  CC(=O)N1C(=O)C(N)(C[n+]2ccccc2)CC1C(=O)O (centres unmarked) [BRM-BLAS 278 (Ac)]           -1
4  CC(=O)N1C(=O)C(N)(C[n+]2ccccc2)CC1C(=O)O (centres unmarked) [BRM-BLAS 278 (Cl)]           -1

----------
# Tested on: human lymphocytes
# assay.info: in vitro non-specific lymphoproliferative response (RLP-I) to PHA, human lymphocyte cultures
# Format: cell-based
# condition.parameters: Table V; PHA + BRM-BLAS (B) versus PHA (A)
Reported values of RLP-I B < A, percentage of witness models for individual entries
experimental.readout: RLP-I B < A, percentage of witness models (%)

> print(dat)
                                   molecule  result.number
1  CC(=O)N1C(=O)C(N)(C[n+]2ccccc2)CC1C(=O)O (centres unmarked) [BRM-BLAS 278 (Cl)]             17
2  NC1(C[n+]2ccccc2)CC(C(=O)O)NC1=O (centres unmarked)             30
3  CC(=O)NC1(C[n+]2ccccc2)CC(C(=O)O)N(C(C)=O)C1=O (centres unmarked) [BRM-BLAS 320 (Cl)]             30
4  CC(=O)N1C(=O)C(N)(C[n+]2ccccc2)CC1C(=O)O (centres unmarked) [BRM-BLAS 278 (Ac)]             26
5  CC(=O)NC1(C[n+]2ccccc2)CC(C(=O)O)N(C(C)=O)C1=O (centres unmarked) [BRM-BLAS 320 (Ac)]             21

----------
# Test system: human lymphocytes
# assay.info: in vitro non-specific lymphoproliferative response (RLP-I) to PHA, human lymphocyte cultures
# Assay type: cell-based
# condition.parameters: Table VI; intragroup individual analysis
Field 'label' (enum: yes / no). Set to yes when number of cases with RLP-I B > A in 67% of the witness models is strictly under 9 Num.; else no.

> print(dat)
                                   compound  group.label
1  CC(=O)N1C(=O)C(N)(C[n+]2ccccc2)CC1C(=O)O (stereo not drawn) [BRM-BLAS 278 (Cl)]           no
2  CC(=O)NC1(C[n+]2ccccc2)CC(C(=O)O)N(C(C)=O)C1=O (stereo not drawn) [BRM-BLAS 320 (Cl)]           no
3  NC1(C[n+]2ccccc2)CC(C(=O)O)NC1=O (stereo not drawn) [BRM-BLAS 236 (Ac), acetate]           no
4  CC(=O)N1C(=O)C(N)(C[n+]2ccccc2)CC1C(=O)O (stereo not drawn) [BRM-BLAS 278 (Ac)]          yes

----------
Reported values of number of cases with RLP-I B > A in 100% of the witness models for individual entries
# System: human lymphocytes
# assay.info: in vitro non-specific lymphoproliferative response (RLP-I) to PHA, human lymphocyte cultures
# Type: cell-based
# condition.parameters: Table VI; intragroup individual analysis
experimental.readout: number of cases with RLP-I B > A in 100% of the witness models (Num.)

> print(dat)
                                   compound  measurement.target   uom  result.number
1  CC(=O)N1C(=O)C(N)(C[n+]2ccccc2)CC1C(=O)O (centres unmarked) [BRM-BLAS 278 (Cl)]   human lymphocytes  Num.              6
2  CC(=O)NC1(C[n+]2ccccc2)CC(C(=O)O)N(C(C)=O)C1=O (centres unmarked) [BRM-BLAS 320 (Ac)]   human lymphocytes  Num.              5
3  NC1(C[n+]2ccccc2)CC(C(=O)O)NC1=O (centres unmarked)   human lymphocytes  Num.              2
4  CC(=O)NC1(C[n+]2ccccc2)CC(C(=O)O)N(C(C)=O)C1=O (centres unmarked) [BRM-BLAS 320 (Cl)]   human lymphocytes  Num.              2
5  CC(=O)N1C(=O)C(N)(C[n+]2ccccc2)CC1C(=O)O (centres unmarked) [BRM-BLAS 278 (Ac)]   human lymphocytes  Num.              3

----------
# System: human lymphocytes
# assay.info: in vitro non-specific lymphoproliferative response (RLP-I) to PHA, human lymphocyte cultures
# Type: cell-based
# condition.parameters: Table VI; intragroup individual analysis
experimental.readout: percentage of cases with RLP-I B > A in 100% of the witness models

> print(dat)
                                   compound  result
1  CC(=O)N1C(=O)C(N)(C[n+]2ccccc2)CC1C(=O)O (centres unmarked) [BRM-BLAS 278 (Ac)]     33%
2  CC(=O)NC1(C[n+]2ccccc2)CC(C(=O)O)N(C(C)=O)C1=O (centres unmarked) [BRM-BLAS 320 (Ac)]     36%
3  CC(=O)NC1(C[n+]2ccccc2)CC(C(=O)O)N(C(C)=O)C1=O (centres unmarked) [BRM-BLAS 320 (Cl)]     13%
4  NC1(C[n+]2ccccc2)CC(C(=O)O)NC1=O (centres unmarked)     18%
5  CC(=O)N1C(=O)C(N)(C[n+]2ccccc2)CC1C(=O)O (centres unmarked) [BRM-BLAS 278 (Cl)]     37%
